Reference source for all entries: patent US20240277770A1

target: T1, HLA-A*01:01 (human); experiment: HLA-I IP (W6/32) and targeted MS of monoallelic HMy2.C1R cells expressing the polyantigen cassette
T1 construct: whole, on cells; MHC class I on a monoallelic cell line
Measurement Kind: binding result

binder=LDTAGKEEY measurement_kind="binding result" result=binds
binder=DTAGREEY measurement_kind="binding result" result=binds
binder=ILDTAGKEEY measurement_kind="binding result" result=binds
binder=ILDTAGREEY measurement_kind="binding result" result=binds
binder=YTDVSNMSHLA measurement_kind="binding result" result=binds
binder=YTDVSNMSH measurement_kind="binding result" result=binds
